# experimental.target: T1, GFP-9S library array, motif 4 ND N98K (synthetic construct, N98K)
# T1 chain: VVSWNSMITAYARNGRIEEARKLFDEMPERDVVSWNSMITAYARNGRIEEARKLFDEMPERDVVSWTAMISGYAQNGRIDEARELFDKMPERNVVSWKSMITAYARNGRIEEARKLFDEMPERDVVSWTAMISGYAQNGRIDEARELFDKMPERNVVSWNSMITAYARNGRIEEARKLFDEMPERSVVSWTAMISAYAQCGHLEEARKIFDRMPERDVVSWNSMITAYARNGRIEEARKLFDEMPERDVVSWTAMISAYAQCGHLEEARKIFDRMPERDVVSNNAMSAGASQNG
# procedure.summary: high-throughput RNA pulldown from lysate on Ni-NTA beads; HRP: 50 mM Tris pH 8, 150 mM NaCl, 1 mM beta-mercaptoethanol, 50 ug/ml BSA, 3 ug/ml yeast RNA, 0.5% heparin; ITC and FP: Tris pH 8, 200 mM KCl, 5% glycerol; MST: 50 mM Tris pH 8, 200 mM NaCl, 1 mM DTT, BSA, heparin, 0.05% Tween 20
# condition.details: tags: N-terminal His-eGFP; label: 5' IRDye 800CW
metric: Kd (nM)
// note: answer is a bare numeric in nM

Enquiry: Determine from records and report Kd for AUUAAACGUGA (ssRNA) [IR-rpoA-A]
Return: 409

Enquiry: Determine from records and report Kd for AUUAUACGUGA (ssRNA) [IR-rpoA-U]
Return: 279
